ASSAY_SYSTEM: HLA-B*58:01
ASSAY_COMMENT: IEDB peptide-MHC binding, purified MHC/direct/fluorescence; filed as Kd, often an IC50 or EC50 that approximates it; bounds were set here for any values at or beyond the usual limits of such assays
CONDITION: source organism: Vibrio parahaemolyticus
pKd: −log10 of the molar value.
MEASURED_METRIC: pKd

Lab note: `YREAGIPVL` gave pKd of ≤ 4.70

---

ASSAY_SYSTEM: HLA-A*02:03
ASSAY_COMMENT: IEDB peptide-MHC binding, purified MHC/competitive/radioactivity; filed as Kd, often an IC50 or EC50 that approximates it; bounds were set here for any values at or beyond the usual limits of such assays
CONDITION: source organism: Dengue virus 3 Martinique/1243/1999
MEASURED_METRIC: Kd
Give the figure together with its unit, number first.

[
  {
    "RESIDUE_CODES": "TLIMIGSNA",
    "RESULT": "0.032 µM"
  }
]

Item: `KLNDWDFVV` | Kd: 0.0201 µM

Lab note: measured Kd of `YAMCTNTFV` was 0.00552 µM

Reported Kd ( `PLNEGVMAV` ) = 0.0215 µM

Form field Kd, entry `SLAAIANQAV` : 0.00625 µM

---

ASSAY_SYSTEM: HLA-B*35:01
ASSAY_COMMENT: IEDB peptide-MHC binding, purified MHC/competitive/fluorescence; filed as Kd, often an IC50 or EC50 that approximates it; bounds were set here for any values at or beyond the usual limits of such assays
CONDITION: source organism: Yersinia pestis Nepal516
MEASURED_METRIC: Kd
Just so you know, I need the unit written after the number.

Just so you know, measured Kd for `MPAIFFSIV` came out at 1.2 nM

---

ASSAY_SYSTEM: HLA-B*15:17
ASSAY_COMMENT: IEDB peptide-MHC binding, purified MHC/competitive/fluorescence; filed as Kd, often an IC50 or EC50 that approximates it; bounds were set here for any values at or beyond the usual limits of such assays
CONDITION: source organism: Vaccinia virus WR
pKd: −log10 of the molar value.
MEASURED_METRIC: pKd

Reported HLA-B*15:17 pKd for item `YQYIFLSFF` was ≤ 4.70

---

ASSAY_SYSTEM: HLA-A*02:12
ASSAY_COMMENT: IEDB peptide-MHC binding, purified MHC/direct/fluorescence; filed as Kd, often an IC50 or EC50 that approximates it; bounds were set here for any values at or beyond the usual limits of such assays
CONDITION: source organism: Orthohantavirus andesense
MEASURED_METRIC: Kd

Reported Kd for `SIKFKRKLM` was ≥ 20 µM

---

ASSAY_SYSTEM: HLA-A*26:01
ASSAY_COMMENT: IEDB peptide-MHC binding, purified MHC/direct/fluorescence; filed as Kd, often an IC50 or EC50 that approximates it; bounds were set here for any values at or beyond the usual limits of such assays
CONDITION: source organism: Brucella abortus 2308
MEASURED_METRIC: Kd

Field Kd (HLA-A*26:01), entry `TPPVDRMAV` : ≥ 20 µM

---

ASSAY_SYSTEM: HLA-A*32:07
ASSAY_COMMENT: IEDB peptide-MHC binding, purified MHC/competitive/fluorescence; filed as Kd, often an IC50 or EC50 that approximates it; bounds were set here for any values at or beyond the usual limits of such assays
CONDITION: source organism: Shigella boydii CDC 3083-94
MEASURED_METRIC: Kd (nM)
Reply with just the number (in nM).

Please fill in: Kd reported for `GMMRWCMPV` = 5.2
